subject.of.test: T1, rSEZ6-ECD-His (rat, UniProt Q7TSK2 20-922 (mouse entry))
T1 construct: the whole entry is named; also called rat recombinant SEZ6-His; rat SEZ6 ECD
T1 chain: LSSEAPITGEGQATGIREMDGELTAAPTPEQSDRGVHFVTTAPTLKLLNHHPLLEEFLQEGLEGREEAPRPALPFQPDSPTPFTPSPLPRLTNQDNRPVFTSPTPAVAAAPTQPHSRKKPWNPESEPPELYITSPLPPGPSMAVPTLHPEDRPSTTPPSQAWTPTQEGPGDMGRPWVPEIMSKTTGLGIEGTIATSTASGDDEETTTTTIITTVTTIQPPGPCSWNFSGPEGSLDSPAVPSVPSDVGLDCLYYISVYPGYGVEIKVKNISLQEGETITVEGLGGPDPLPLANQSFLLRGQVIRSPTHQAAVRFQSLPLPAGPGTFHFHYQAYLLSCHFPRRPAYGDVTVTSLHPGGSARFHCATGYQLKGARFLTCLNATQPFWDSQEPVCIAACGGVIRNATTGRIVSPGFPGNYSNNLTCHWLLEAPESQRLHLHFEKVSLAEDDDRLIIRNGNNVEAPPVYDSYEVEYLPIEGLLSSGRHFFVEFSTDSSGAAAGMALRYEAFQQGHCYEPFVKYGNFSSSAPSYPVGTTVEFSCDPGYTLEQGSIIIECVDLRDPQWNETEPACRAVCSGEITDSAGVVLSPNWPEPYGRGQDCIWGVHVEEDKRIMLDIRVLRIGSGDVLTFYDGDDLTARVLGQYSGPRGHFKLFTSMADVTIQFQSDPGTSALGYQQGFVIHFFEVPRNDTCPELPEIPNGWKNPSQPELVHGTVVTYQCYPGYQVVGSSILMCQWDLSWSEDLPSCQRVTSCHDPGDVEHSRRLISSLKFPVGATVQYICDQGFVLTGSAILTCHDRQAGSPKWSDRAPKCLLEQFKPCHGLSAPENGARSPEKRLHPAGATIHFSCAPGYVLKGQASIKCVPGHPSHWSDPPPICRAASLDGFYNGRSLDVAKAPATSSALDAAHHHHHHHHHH
assay.notes: bio-layer interferometry (ForteBio RED) or surface plasmon resonance (Biacore 2000) on rat SEZ6-His; the table does not say which; column Rat XR (Kd, nM)
readout: Kd (nM)
Give just the numeric value; nM need not be written.

These recorded examples may help you get a feel for the data.
>  <binder>
SC17.28 (antibody, V domains shown, murine mAb) VH: QVHLPQSRPELVKPGASVKISCKASGYGFTRSYIHWVKQRPGQGLEWIGYISSGSGGTTYNQKFKGKASLTADNPSSTAYMHLSSLTSEDSAIYFCARGGVRYFDVWGAGTTVTVSS VL: DILLTQSPAILSVSPGEGVSFSCRASQSIGTSIHWYQQRTNGSPRLLIKYASESISGIPSRFSGSGSGTDFTLRINSLESEDIADYYCQQSNSWPLTFGAGTKLELK

>  <quantitative.readout>
31

$$$$
>  <binder>
SC17.42 (antibody, V domains shown, murine mAb) VH: DVKLVESGGGLVRPGGSLKLSCAASGFTFSRYTMSWVRQTPEKRLEWAATINSGGSNTYYPDSVKGRFTISRDNAKNTLFLQMSSLKSEDTAMYYCTNGNHWGQGTTLTVSS VL: ENVLTQSPAIMSASPGEKVTMTCSASSSVNYMYWYQQKSSTSPKLWIYDTSKLTSGVPGRFSGSGSGNSYSLTISNMEAEDVATYYCFQGSGYPLTFGSGTKLEIK

>  <quantitative.readout>
3

$$$$

--- query ---
// Kd lookup, binder = SC17.17 (antibody, V domains shown, murine mAb) VH: EVQLQQSGPEVMKPGASVKMSCKASGYTFTDYNMHWVKQNQGKSLEWIGEINPNIGGTGYNQKFKGKATLTVHKSSSTAYMELRSLTSEDSAVYYCARTYSYYSYEFAYWGQGTLVTVSA VL: QIVLTQSPAIMSASPGEKVTMTCSASSSVSYMHWYQQKSGTSPKRWIYDTSKLPSGVPARFSGSGSGTSYSLTISSMEAEDAATYYCQQWSSTPPTFGAGTKLELK , result: 5

Values from patent US20190022241A1
